Assay: Metabolic stability in human liver microsomes assessed as percent of residual drug in presence of NADPH incubated for 40 mins by LC-ESI-MS/MS method
Assay type: ADME, Microsome
Details: liver microsomes, read-out: Stability
property-label: remaining at 40 min (%)

For orientation, consider the following solved cases.
>>> print(df.to_string())
                                smiles_data  recorded_value
0  Nc1ncnc2c1nc(Sc1cc3c(cc1Br)OCO3)n2CCC1CCN(C(=O)[C@@H]2CCCN2)CC1              38
1  Nc1ncnc2c1nc(Sc1cc3c(cc1Br)OC(F)(F)O3)n2CCC1CCN(C=O)CC1               0
2  Nc1ncnc2c1nc(Sc1cc3c(cc1Br)OCO3)n2CCC1CCN(C=O)CC1              17
3  Nc1ncnc2c1nc(Sc1cc3c(cc1Br)OCO3)n2CCC1CCN(C(=O)CO)CC1              54
4  C[C@H](O)C(=O)N1CCC(CCn2c(Sc3cc4c(cc3Cl)OCO4)nc3c(N)ncnc32)CC1              32
5  Nc1ncnc2c1nc(Sc1cc3c(cc1Br)OCO3)n2CCC1CCNCC1              78

1: CN1CCOc2cc(Br)c(Sc3nc4c(N)ncnc4n3CCC3CCN(C=O)CC3)cc21
2: Nc1ncnc2c1nc(Sc1cc3c(cc1Br)OCCO3)n2CCC1CCN(C=O)CC1
**Q:** Given the listed records, identify the one among 1 and 2 with higher remaining at 40 min. I would appreciate it if you answered with the label of your choice.
**A:** 2
(2: 42%, 1: 0%)
